System: Sonic hedgehog protein (Shh)
Experiment: small-molecule binders of Shh protein, primary screen, biochemical, small-molecule microarray, 635/667 nm fluorescence (AID 1151);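 also: Shh protein binding to compounds spotted on small-molecule microarray slides; score combines spot fluorescence intensity with signal-to-noise across triplicate slides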
Details: small-molecule microarray binding, 635 nm fluorescence; higher = more signal
Measured composite z-score, listed per entry for reference.
# print the numeric value only

Sample records with composite z-score:
CC1CC/C=C\[C@H]2OC34C=CCN(Cn5nnc6ccccc65)C(=O)[C@H]3N(CCO)C(=O)[C@@H]4C2C(=O)O1 (stereo partly drawn)	-0.0981
CN1C(=O)C2C(C1=O)C1C=C(CCCO)C2C(c2ccc(CN3CCCC3)cc2)N1C (stereo not drawn)	0.207
COc1ccc([Si](C)(C)[C@@H]2[C@@H](CC(=O)N3CCC[C@H]3CO)O[C@]3(C(=O)N(Cc4cccc(N5CCC5=O)c4)c4ccccc43)[C@H]2C)cc1	2
COC(=O)[C@@H]1CC[C@H](C)[C@@H](c2ccc(C)cc2)N1C(=O)c1ccc(C=NOC[C@@H](O)COCc2ccco2)cc1	-0.334

# input Give composite z-score (Sonic hedgehog protein (Shh)) of the following compound: CC(CCN1CCCCc2nc(C)c(C)cc21)=NOC(C)CN1CCCc2nc(C)c(C)cc21 (stereo not drawn)
# output 1.73

# input And the next one, `[N-]=[N+]=NCc1ccccc1[C@@H]1OC(c2ccc(OCCCO)cc2)=N[C@]1(Cc1ccccc1)C(=O)N1CCOCC1` ?
# output 0.0283

# input And the next one, `C=C(/C(=C/C[C@H](OC(C)=O)c1ccc(OCCO)cc1)c1cnc2ccccc2c1)C(C)C` ?
# output 2.21

# input And the next one, `C=CC[C@@H]1C=C[C@H](ON=C2c3cc(OC)ccc3O[C@H](c3cccc(OC)c3)[C@H]2O)[C@@H](CO)O1` ?
# output 0.723

# input And the next one, `O=C1c2ccccc2[C@@]2(Cc3ccccc3N(C3CC3)C2=O)[C@H](c2ccc(CO)cc2)N1Cc1ccccc1C(F)(F)F` ?
# output -0.537

# input And the next one, `C[C@H](c1ccccc1)N1C(=O)[C@H]2[C@H]3[C@H](O)[C@H](O)CC(=O)[C@@H]3CC[C@H]2C1=O` ?
# output 0.694

# input And the next one, `C=CCN1C(=O)[C@]2(O[C@H](CCn3cc(CCO)nn3)[C@@H]([Si](C)(C)c3ccc(OC)cc3)[C@@H]2C)c2cc(N3CCOC3=O)ccc21` ?
# output 0.6

# input And the next one, `CO[C@@H]1COC(=O)CC=C[C@@H](C)[C@@H]2C=C[C@H](O)[C@@H](COC(=O)CCC[C@H]1C)O2` ?
# output 1.55

# input And the next one, `CCCCC(=C=CC[C@H](O)c1ccccc1OCCO)C[C@H](O)COCc1ccccc1` ?
# output 0.0668

* * *

Test: osmotic lysis modulators in infected erythrocytes, primary screen, PSAC antagonist project, cell-based, P. falciparum Indochina, OD700, 3 h (AID 1156)
Settings: higher = more signal, called active from +8 up or from −8 down
Label label 0 if z-score falls below 0.5; label label 1 in every other case.

COCCOC(=O)N1C(=O)[C@@]2(c3cc(C#CC4(O)CCCCCC4)ccc31)[C@H](C(=O)N1CCN(c3ncccn3)CC1)[C@H]1C(=O)O[C@H](c3ccccc3)[C@H](c3ccccc3)N1[C@@H]2c1ccc(OCCO)cc1	label 1
C#CCCCON=C1C[C@@H](O)[C@@H](O)[C@@H]2[C@@H]3C(=O)N([C@@H](C)c4ccccc4)C(=O)[C@@H]3CC[C@H]12	label 0
COCCOC(=O)N1C(=O)[C@@]2(c3cc(C#CCNC(N)=O)ccc31)[C@H](c1ccccc1OCCO)N1[C@H](c3ccccc3)[C@H](c3ccccc3)OC(=O)[C@H]1[C@@H]2C(=O)N1CCN(c2ncccn2)CC1	label 1
C#CCCCON=C1C[C@@H](O)[C@@H](O)[C@@H]2[C@@H]3C(=O)N(c4cccc(Oc5ccccc5)c4)C(=O)[C@@H]3CC[C@@H]12	label 1

# input Is it the case that O=C1CCCC=C1C(O)CCOCc1ccccc1 (stereo unspecified) has z-score reaching or exceeding 0.5?
# output label 0

# input And the next one, O=C1C2C=CC(C(O)c3ccc([N+](=O)[O-])cc3)N(Nc3ccc([N+](=O)[O-])cc3)C2C(=O)N1c1ccccc1 (stereo unspecified) ?
# output label 1

* * *

Test system: Noggin (protein binding on small-molecule microarray)
Experiment: Noggin binders on small-molecule microarray, primary screen, biochemical, 635/667 nm fluorescence (AID 1095);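 also: score merges 667 nm feature fluorescence with signal to noise over triplicate slides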
Conditions: 635 nm fluorescence, higher = more signal
Label 0.0 if composite z-score falls below -0.09; label 1.0 in every other case.

CCOC(=O)CCN1C(=O)[C@H]2[C@H]3[C@H](O)[C@H](O)CC(=NOC[C@@H](O)COCc4ccco4)[C@H]3CC[C@H]2C1=O	1.0
O=C1O[C@@H](c2ccccc2)[C@@H](c2ccccc2)N2[C@@H](c3ccc(O)cc3)[C@]3(C(=O)Nc4ccccc43)[C@@H](C(=O)O)[C@H]12	0.0
O=C1[C@H]2[C@H]3[C@H](O)[C@H](O)CC(=NOCc4ccccc4)[C@@H]3CC[C@H]2C(=O)N1C1CCCCC1	0.0
CN1C(=O)[C@@]2(CCC(=O)OC(C)(C)C)N=C(c3ccc(OCCCO)cc3)O[C@H]2c2ccccc21	1.0
COc1ccc(CCNC(=O)[C@@H]2c3ccccc3C(=O)N(c3ccc(C)cn3)[C@H]2c2ccc(CO)cc2)cc1	0.0

# input for lookup
# input Is it the case that COc1ccc(-c2ccc3c(n2)CCCN3CC(O)CN2CCCc3nc(C)c(C)cc32)cc1 (configuration not stated) has composite z-score reaching or exceeding -0.09?
# output 1.0

* * *

Assay: basal S. cerevisiae growth modulation, no modifier, primary screen, OD600, strain BY4716, 24 h, basal condition (AID 1173)
Conditions: OD600, 24 h, called active from +8 up or from −8 down
Calls of active or inactive are those of the source.
Your response should consist of one outcome taken from active, inactive

Past entries and their recorded results:
C=CCNC(=O)[C@H]1[C@@H]2C(=O)O[C@@H](c3ccccc3)[C@@H](c3ccccc3)N2[C@@H](c2ccc(O)cc2)[C@]12C(=O)N(C(=O)OCCOC)c1ccc(C#CC3=CCCCC3)cc12	inactive
CCOC(=O)NN=C1C[C@@H](O)[C@@H](O)[C@@H]2[C@@H]3C(=O)N(CC)C(=O)[C@@H]3CC[C@@H]12	inactive
CC1(C)OCC(C(O)C2=CCCCC2=O)CO1 (stereo not given)	inactive
COCC(=C=CC[C@@H](O)c1ccccc1OCCO)CCO	inactive
CC=CC1=C(CO)[C@H](O)[C@H]2O[C@H]2[C@H]1O	inactive

# input What is the recorded call for this molecule in the test? `CC(C)CON=C1C[C@@H](O)[C@@H](O)[C@@H]2[C@@H]3C(=O)N(C[C@@H]4CCCO4)C(=O)[C@@H]3CC[C@H]12`
# output inactive

# input And the next one, `CC[C@@H](c1ccccc1)n1c(=O)n2n(c1=O)[C@H]1[C@H](O)[C@@H]3O[C@@H]3C(=NOCC(C)C)[C@H]1CC2` ?
# output inactive

# input And the next one, `CCCNC(=O)[C@@H]1c2ccccc2C(=O)N(c2ccc(C)cn2)[C@H]1c1ccc(CO)cc1` ?
# output inactive

# input And the next one, `CO[C@H]1COC(=O)[C@@H]2CCCN2C(=O)CC=C[C@@H](C)[C@H](OC)COC(=O)CC=C[C@@H]1C` ?
# output inactive

# input And the next one, `COCCCNC(=O)[C@]1(CCC(=O)OC(C)(C)C)N=C(c2ccc(OCCCO)cc2)O[C@@H]1c1ccccc1N=[N+]=[N-]` ?
# output inactive

# input And the next one, `COC(=O)C1=C(C)N(Cc2ccccc2)[C@]23O[C@](C(=O)OC)(C(=O)N2[C@@H]1c1ccccc1)[C@H]1CCOC(=O)[C@H]13` ?
# output inactive

# input And the next one, `C/C=C\[C@@H](NCc1ccccc1Br)[C@@H](O)Cc1ccccc1` ?
# output active

# input And the next one, `COC(=O)CC=C[C@H](C)[C@H](CO)NS(=O)(=O)c1ccc(C)cc1` ?
# output inactive

# input And the next one, `COC(=O)[C@@]1(Cc2ccc(F)cc2)[C@@H]2C(=CC(=O)[C@H]2CC(=O)C(=O)N(C)C)CN1C(=O)c1ccccc1` ?
# output inactive

* * *

Test system: wheat germ agglutinin (Triticum aestivum), Alexa647-labelled
Experiment: wheat germ agglutinin binders on compound microarrays, profiling panel, artefact control for SMM control-protein annotation, biochemical, small-molecule microarray, 635/667 nm fluorescence (AID 1140);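 also: score merges 667 nm feature emission with signal to noise over triplicate slides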
Settings: WGA-A647 binding, 635 nm fluorescence, higher = more signal
REPORTED ENDPOINT: composite z-score
# print the numeric value only

Sample records with composite z-score:
CC1(C)OCC(C(O)C2=CCCCC2=O)CO1 (configuration not stated)	0.731
COCCCNC(=O)[C@]1(Cc2ccccc2)N=C(c2ccc(OCCCO)cc2)O[C@@H]1c1ccccc1	1.09
CC(=O)OC[C@H]1O[C@H](CCON=C(C)CCN2CCc3nc(-c4ccccc4)c(-c4ccccc4)cc3C2)C=C[C@@H]1OC(C)=O	0.563
CC(=O)OC[C@H]1O[C@@H](ON=C(C)CCN2CCc3nc(-c4ccccc4)c(-c4ccccc4)cc3C2)[C@H](OC(C)=O)[C@@H](OC(C)=O)[C@@H]1OC(C)=O	0.491
CCCNC(=O)OC[C@H]1O[C@H](CCON=C[C@@H](OC)[C@H](C)C=CCC(=O)OC)C=C[C@@H]1Oc1ccc(OC)cc1	0.183

# input Consider the compound shown here: CN1C(=O)C2C=CC(C(O)C(c3ccccc3)c3ccccc3)N(NC(=O)OC(C)(C)C)C2C1=O (configuration not stated) What is its recorded composite z-score?
# output 1.09

# input And the next one, COC(=O)CC1OC1[C@H](C)[C@@H](OC)C(C)C (some centres not stated) ?
# output 0.733

# input And the next one, `COc1ccc(-c2nc3c(c4c2C[C@H](C)OC4)CN(CCC(C)C)CC3)cc1` ?
# output 0.642

# input And the next one, `COC(=O)C1=C(C)[C@@H](O)[C@@H](C)[C@H](c2c(OC)c(OC)c(C)c(OC)c2OC)O1` ?
# output -0.611

# input And the next one, COc1ccc(O[C@H]2C=C[C@@H](c3ccccc3)O[C@@H]2COC(=O)CCC(C)=NOC(C)CN2CCCCc3nc(C)c(C)cc32)cc1 (some centres not stated) ?
# output 0.878

# input And the next one, `O=C1O[C@@H](c2ccccc2)[C@@H](c2ccccc2)N2[C@@H](c3ccc(OCCO)cc3)[C@]3(C(=O)Nc4ccc(C#CCCO)cc43)[C@@H](C(=O)N3CCCCCCC3)[C@H]12` ?
# output 1.35

# input And the next one, CCc1cc2c(nc1CC)CCN(CCC(C)=NOC(C)CN1CCCc3nc(C)c(C)cc31)C2 (configuration not stated) ?
# output 0.467

# input And the next one, CC(C)c1ccc(NN2C(C(O)c3ccc4c(c3)OCO4)C=CC3C(=O)N(c4ccccc4)C(=O)C32)cc1 (configuration not stated) ?
# output 0.881

# input And the next one, O=C1CCCC2OC12C(O)CCc1ccccc1 (configuration not stated) ?
# output -0.0681

# input And the next one, Cc1ccc(C2CC=C(C(=O)O)CN2S(=O)(=O)c2ccc(C)cc2)cc1 (configuration not stated) ?
# output 0.718

# input And the next one, `COc1ccc(O[C@H]2C=C[C@@H](c3ccccc3)O[C@@H]2COC(=O)CCC(C)=NO[C@H](C)c2cn([C@@H]3COC[C@H]3O)nn2)cc1` ?
# output -0.151

# input And the next one, `C#C[C@@H]1Oc2ccccc2S(=O)(=O)N2CCC[C@H]12` ?
# output -0.249
